Experiment: Solubility of active agents in neat alkyl ketal esters (dissolution, storage at room temperature)
Conditions: solvent Bu-LGK; dissolved at 50-80° C.; still soluble after 24 hours at room temperature where stated
RECORDED_ENDPOINT: % solids dissolved in Bu-LGK with heat, no precipitation (%)
Value expressed in %; do not type the unit.

- MOLECULE: "COc1cc(CCC(=O)CC(=O)CCc2ccc(O)c(OC)c2)ccc1O [Tetrahydrocurcuminoids, tetrahydrodiferuloylmethane]"
  OUTPUT_UNIT: "%"
  MEASURED_NUMBER: 5
- MOLECULE: "O=C(O)c1ccccc1O"
  OUTPUT_UNIT: "%"
  MEASURED_NUMBER: 10
- MOLECULE: "Oc1ccc(C=Cc2cc(O)cc(O)c2)cc1"
  OUTPUT_UNIT: "%"
  MEASURED_NUMBER: 0.5

We next turn to a different molecule, shown below.
Consider `Nc1ccc(N)cc1` . Its measured % solids dissolved in Bu-LGK with heat, no precipitation is 5
